assay: clinical; details: human, in vivo, T ½, geometric mean (90% CI), post-ginseng
Parameter: half-life. Scope: all listed entries.
Quantity: half-life (h)

{"columns": ["Compound", "Value measured"],
 "data": [
  ["CC(C)c1nc(CN(C)C(=O)N[C@H](C(=O)N[C@@H](Cc2ccccc2)C[C@H](O)[C@H](Cc2ccccc2)NC(=O)OCc2cncs2)C(C)C)cs1 [Ritonavir, ritonavir]", 7.71],
  ["Cc1cccc(C)c1OCC(=O)N[C@@H](Cc1ccccc1)[C@@H](O)C[C@H](Cc1ccccc1)NC(=O)[C@H](C(C)C)N1CCCNC1=O [Lopinavir, lopinavir]", 10]
]}

* * *

test: clinical; conditions: human, in vivo, Tmax, geometric mean (90% CI), post-ginseng
Parameter: Tmax. Scope: all listed entries.

{"columns": ["Molecular string", "Measure unit", "Tmax"],
 "data": [
  ["Cc1cccc(C)c1OCC(=O)N[C@@H](Cc1ccccc1)[C@@H](O)C[C@H](Cc1ccccc1)NC(=O)[C@H](C(C)C)N1CCCNC1=O", "h", 2.5],
  ["CC(C)c1nc(CN(C)C(=O)N[C@H](C(=O)N[C@@H](Cc2ccccc2)C[C@H](O)[C@H](Cc2ccccc2)NC(=O)OCc2cncs2)C(C)C)cs1", "h", 2.7]
]}
